Below is a list of entries, each paired with its recorded pKi value.
# test_target: Human σ1 receptor (Homo sapiens)
# Construct: expressed in transfected cells; host or cells: HEK-293
# experiment_summary: Human σ1 receptor radioligand assay ([3H](+)-pentazocine binding, transfected HEK-293 membranes)
# recorded_conditions: binding to σ1 receptor expressed as Ki; + also covers inhibition between 1% and 50%; read-out: σ-1 binding
pKi: −log10 of the molar value.

// worked examples, pKi included
compound: Cc1nn2c([C@H]3CCCN(Cc4ccc(Cl)cc4)C3)ccnc2c1CN(C)CC1CC1
pKi: > 6.30
//
compound: Cn1cncc1-c1cc2nccc(C3CCCN(Cc4ccccc4)C3)n2n1 (stereo not drawn)
pKi: < 6.00
//
compound: COc1ccc(-c2cc3nccc(C4CCCN(Cc5ccccc5)C4)n3n2)cn1 (stereo not drawn)
pKi: < 6.00
//
compound: Cc1nn2c(C3CCCN(Cc4ccc(Cl)cc4)C3)ccnc2c1CNCCC1CCOCC1 (stereo not drawn)
pKi: > 6.30

Req: Give the reported value of pKi for this record: Brc1cc2nccc(C3CCCN(Cc4ccccc4)C3)n2n1 (stereo not drawn)
Resp: 6.00 to 6.30

Req: Give the reported value of pKi for this record: c1ccc(CN2CCCC(c3ccnc4c(-c5cccnc5)cnn34)C2)cc1 (stereo not drawn)
Resp: < 6.00

Req: Give the reported value of pKi for this record: CNCc1cc(-c2c(C)nn3c(C4CCCN(Cc5ccccc5)C4)ccnc23)ccn1 (stereo not drawn)
Resp: < 6.00

Req: Give the reported value of pKi for this record: Cc1cnc2c(-c3ccncc3)cnn2c1C1CCCN(CCc2ccccc2)C1 (stereo not drawn)
Resp: > 6.30

----------
# test_target: Human σ1 receptor (Homo sapiens, UniProt Q99720)
# Sequence (Q99720 whole entry): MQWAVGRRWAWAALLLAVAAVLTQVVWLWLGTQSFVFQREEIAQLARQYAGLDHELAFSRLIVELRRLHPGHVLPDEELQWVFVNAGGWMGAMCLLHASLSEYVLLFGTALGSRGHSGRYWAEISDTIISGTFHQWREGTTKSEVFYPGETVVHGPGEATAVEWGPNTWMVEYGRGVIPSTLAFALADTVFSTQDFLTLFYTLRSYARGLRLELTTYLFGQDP
metric_name: Ki

molecule: COc1nn2c(C3CCCN(Cc4ccccc4)C3)ccnc2c1CNCC1CCOCC1 (centres unmarked) [Example 248]
test_target: Human σ1 receptor (Homo sapiens, UniProt Q99720)
Ki: 0.5 to 1 µM

Req: Give the reported value of Ki for this record: Cc1nn2c(C3CCCN(Cc4ccc(Cl)cc4)C3)ccnc2c1-c1cnc(N)nc1 (centres unmarked) [Example 131]
Resp: > 1 µM

Req: Give the reported value of Ki for this record: Cc1nn2c(C3CCCN(Cc4ccc(Cl)cc4)C3)ccnc2c1CNCCN1CCOCC1 (centres unmarked) [Example 166]
Resp: < 0.5 µM

Req: Give the reported value of Ki for this record: Cc1nn2c(C3CCCN(Cc4ccc(Cl)cc4)C3)ccnc2c1CN1CCN(S(C)(=O)=O)CC1 (centres unmarked) [Example 175]
Resp: > 1 µM

Req: Give the reported value of Ki for this record: Cc1nn2c(C3CCCN(Cc4ccc(Cl)cc4)C3)ccnc2c1-c1ccncc1 (centres unmarked) [Example 121]
Resp: 0.5 to 1 µM

Req: Give the reported value of Ki for this record: CC(=O)N1CCN(Cc2c(C)nn3c(C4CCCN(Cc5ccc(Cl)cc5)C4)ccnc23)CC1 (centres unmarked) [Example 174]
Resp: > 1 µM

Req: Give the reported value of Ki for this record: Cc1nn2c(C3CCCN(Cc4cccc(F)c4)C3)ccnc2c1CNCC1CCOCC1 (centres unmarked) [Example 181]
Resp: < 0.5 µM

Req: Give the reported value of Ki for this record: Cc1nn2c(C3CCCN(Cc4ccccc4)C3)ccnc2c1N1CCCC1 (centres unmarked) [Example 89]
Resp: 0.5 to 1 µM

Req: Give the reported value of Ki for this record: CC(=O)N1CCC(CNCc2c(C)nn3c([C@H]4CCCN(Cc5ccc(F)c(F)c5)C4)ccnc23)CC1 [Example 247]
Resp: < 0.5 µM

Req: Give the reported value of Ki for this record: COc1cncc(-c2cc3nccc(C4CCCN(Cc5ccccc5)C4)n3n2)c1 (centres unmarked) [Example 31]
Resp: > 1 µM

Req: Give the reported value of Ki for this record: Cc1nn2c(CC3CCCN(Cc4cccc(Cl)c4)C3)ccnc2c1-c1ccncc1 (centres unmarked) [Example 250]
Resp: 0.5 to 1 µM
